Test system: Caco-2 cells
experimental_details: Caco-2 cell monolayer permeability
Format: in vitro ADME, human
condition_details: Caco-2, first value: A-B / apical
Below, each entry is listed with its recorded Mass balance.

molecule | Mass balance (%)
CNC(=C[N+](=O)[O-])NCCSCc1ccc(CN(C)C)o1 | 96
CC(C)NCC(O)COc1cccc2ccccc12 (stereo not drawn) | 91.7
CCOC(=O)c1[nH]c2cc(F)ccc2c1/N=N/N1CCCC1 | 49

###

experimental_details: Solubility in water by HPLC
Format: physicochemical
condition_details: water, kinetic from dmso stock, read-out: Solubility in water, mass concentration
Values of solubility at 5 min greater than or equal to 20 µg/mL map to rule met; values below map to rule not met.

structure | class_name
CCOC(=O)c1[nH]c2cc(F)ccc2c1/N=N/N1CCOCC1 | rule not met
CCOC(=O)c1[nH]c2cc(F)ccc2c1/N=N/N(CC)CC | rule not met
CCOC(=O)c1[nH]c2ccccc2c1/N=N/N1CCCN(C)CC1 | rule met
CCOC(=O)c1[nH]c2ncccc2c1/N=N/N1CCN(C)CC1 | rule not met
CCOC(=O)c1[nH]c2ccccc2c1/N=N/N1CCC(C)CC1 | rule not met
CCOC(=O)c1[nH]c2ccccc2c1/N=N/N1CCN(C)CC1 | rule met
CCOC(=O)c1[nH]c2cc(F)ccc2c1/N=N/N(C)Cc1ccccc1 | rule not met
CCOC(=O)c1c(/N=N/N(C)Cc2ccccc2)c2cccnc2n1C | rule not met
CCOC(=O)c1[nH]c2ccccc2c1/N=N/N(C)Cc1ccccc1 | rule met
CCOC(=O)c1[nH]c2cc(F)ccc2c1/N=N/N1CCCN(C)CC1 | rule met
CCOC(=O)c1[nH]c2cc(F)ccc2c1/N=N/N(C)CCc1ccccn1 | rule met
